- Test system: Saccharomyces cerevisiae
- protocol.text: protein stability index of tFT-peptide fusion (C-terminal peptide) (PSI (0-1 scale)); higher = more stable (slower turnover);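 further: PSI is a weighted mean of sequencing reads over stability bins, variants kept only with over 10 reads, mCherry proximal and sfGFP distal, peptide attached via GGGS linker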
- condition: genetic background: wild type; temperature: 30 C
Field: protein stability index. Provide a value for each of the sequences that follow.
Give bare numbers.

Worked cases, protein stability index given:
• DEPGTEGAKPWR = 0.727
• NQAQTQQMKTEW = 0.608
• FSVLSPHPLHPL = 0.753

Quick one: give me protein stability index for each item below, same order please.
1. NKKDCFRNRKWE
2. FSAFWLACFFGV
3. KLTVPTKTIVHT
4. HEHFRDRAGPAS
5. RNKKKKEKKKVE

1. 0.593
2. 0.717
3. 0.651
4. 0.636
5. 0.693

Give protein stability index for each of the items listed below.
1. HPPLSPPSALFL
2. MILNLLLFRSKK
3. PPPRRPPSPPSP
4. CGLRRFTGLAWS
5. GDPVKCSNSKDK

1: 0.719; 2: 0.67; 3: 0.729; 4: 0.637; 5: 0.685

State the recorded protein stability index for every item in the following list.
1. FAGNRDQEEERK
2. PPPPLVPLPASP
3. MSGPHGGVADRD
4. PPSPPPPYPAPP
5. GDERGAGRVGGS
6. AFLVGDVFGRLL
7. PSRDGNLYAQCR
8. KRILKEKRRKKN

1: 0.706; 2: 0.688; 3: 0.676; 4: 0.679; 5: 0.626; 6: 0.602; 7: 0.618; 8: 0.658

* * *

So I've got a bunch of sequences here, and I need their protein stability index values.
- Tested on: Saccharomyces cerevisiae
- protocol.text: protein stability index of tFT-peptide fusion (C-terminal peptide) (PSI (0-1 scale)); higher = more stable (slower turnover)
- condition: genetic background: wild type; temperature: 37 C

Example entries begin here.
- GGVWVLGVAVVW: 0.275
- VRLSQVNRLICT: 0.573
- GFCFVFVFQCFF: 0.402
- DVRLVLCEMIKG: 0.601

Each sequence below has a reported value. Please supply its protein stability index.
1. TNHRVRHWILRV
2. GGWSFSSLWKIA
3. VRDQGWILNMLL
4. FLFFCGWVSLFG
5. VFFRVLVAGCRQ
6. WFYLLFVLFGLV

1: 0.517; 2: 0.205; 3: 0.639; 4: 0.479; 5: 0.568; 6: 0.51

I have 7 sequences here; please give me protein stability index for each one.
1. LVGLESCGERAG
2. FFFFSFFLATFS
3. KLMGWFVGVVAR
4. PALYLSLWFLFP
5. YLLTAFLSAFNP
6. VVNFLVFRFFCI
7. RYVVVGACIQVV

[0.72, 0.391, 0.517, 0.576, 0.537, 0.39, 0.451]

Please state, for each entry, its recorded protein stability index.
1. PFYQSGGLVVVV
2. RMCPWVSVRVGV

0.583
0.583

* * *

- Tested on: Saccharomyces cerevisiae
- protocol.text: protein stability index of tFT-peptide fusion (C-terminal peptide) (PSI (0-1 scale)); higher = more stable (slower turnover)
- condition: genetic background: cdc53-1; temperature: 37 C
Can you tell me protein stability index for the items I'm about to list?
Numbers only.

For every item below, please supply its protein stability index.
1. LDHGRVVWVVVS
2. FLSVLPLFAFFA
3. HMVSWTVVRSLM
4. GLGWLLFVVERV
5. LDRLTTWTLIVR
6. YRFVWRWIPICA

1: 0.43; 2: 0.658; 3: 0.701; 4: 0.499; 5: 0.455; 6: 0.0919
